# Assay details: NCI Yeast Anticancer Drug Screen. Data for the bub3 strain (AID 167)
# Reported conditions: S. cerevisiae bub3 mutant strain, at 50.0 µM, active compounds read high
# Procedure: Growth inhibition of yeast strains with defined genetic alterations is measured as a screen for potential anti-cancer activity. Selected strains with alterations in DNA damage repair or cell cycle control were exposed to compounds and growth inhibition was measured relative to vehicle treated controls. The strain used in this assay is bub3
Compounds without any hit were thinned out: in the full panel of roughly 79,000, 15% have a hit. Where a SMILES comes first, the peptide text is derived from it. The star is where a group is joined. ONp = O=[N+]([O-])c1ccc(O*)cc1; Cbz = O=C(OCc1ccccc1)*; OBn = c1ccc(CO*)cc1
Property name: growth inhibition (%)

>>> result_value("CCCCCCCCCCCCC(CC)(C(=O)OCC)C(=O)OCC")
1.15
>>> result_value("CCOC(=O)C1(F)S(=O)(=O)OCCOS1(=O)=O")
6.3
>>> result_value("O=C1OC(c2ccc([N+](=O)[O-])cc2)=N/C1=C\\c1ccc(Cl)c(Cl)c1")
25.2
>>> result_value("CC(C)C1CC[N-]CC1.CC(C)C1CC[N-]CC1.[Cl][Pt+2][Cl]")
36.6
>>> result_value("O=C(CNC(=O)C(CCC(=O)OCc1ccccc1)NC(=O)OCc1ccccc1)NCC(=O)NC(CO)C(=O)NCC(=O)Oc1ccc([N+](=O)[O-])cc1 (stereo not drawn) (Cbz-E(OBn)GGSG-ONp; configuration not given here)")
1.65
>>> result_value("CCC1(O)c2ccccc2CCC1C (stereo not drawn)")
-33.1
>>> result_value("COc1cccc(/C=C\\C#N)c1")
-26.9
>>> result_value("O=C1COC(=O)/C1=C/c1ccccc1")
-15.8
>>> result_value("CO/C(=N\\N=C\\c1cccc(C(F)(F)F)c1)c1ccncc1")
5.1
>>> result_value("O=C(O)CCc1ccc(-c2ccccc2)[nH]1")
-29.1
>>> result_value("O=c1c2cccnc2ncn1CCN1CCCC1")
-1.8
>>> result_value("O=C(O)c1cccc2c1CCCC2")
-11.6
>>> result_value("CC1(C)Cc2ccccc2C1=O")
-1.65
>>> result_value("O=c1[nH]cnc2ccccc12")
16.6
>>> result_value("CC(=O)c1c(C)[nH]c(-c2ccccc2)c1NS(=O)(=O)c1ccc(N)cc1")
4
>>> result_value("CCCn1c(=S)[nH]c2c(=O)n(C)c(=O)n(C)c21")
-4.85
>>> result_value("CS(=O)(=O)OC12CC3CC(CC(C3)C1)C2")
-0.75
>>> result_value("Cc1cc(OC(=O)c2c(C)cc(OC(=O)c3c(C)cc(O)cc3O)cc2O)cc(O)c1C(=O)O")
-27.4
>>> result_value("O=C(CCCn1ccnc1[N+](=O)[O-])NCCn1cncc1[N+](=O)[O-]")
0.25
>>> result_value("COC1OC(COC(=O)c2ccccc2)C(OC(=O)c2ccccc2)C1NC(C)=O (stereo not drawn)")
39.1
>>> result_value("CC(=O)NC(Cc1c[nH]c2ccccc12)C(=O)O (stereo not drawn)")
-35.8
>>> result_value("CC(C)C(NC(=O)C(=O)c1c[nH]c2ccc(Cl)cc12)C(=O)O (stereo not drawn)")
-10.2
>>> result_value("O=C(/C=C/c1ccc(Cl)c(Cl)c1)c1ccc2ccccc2c1")
11.2

Attribution: PubChem BioAssay (NCI)
